Test system: Inhibin beta A chain (activin A)
Test: INHBA (activin A) binders on microarrays, primary screen, biochemical, small-molecule microarray, 635 nm fluorescence scan (AID 1107);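 also: mouse activin A protein probed at 4.33 µg/mL on printed slides; score merges bound-protein fluorescence near 667 nm with spot signal-to-noise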
Conditions: small-molecule microarray binding, higher = more signal
Readout Type: composite z-score

Compound | System Name | Obs Value
CO[C@H]1O[C@H](CO)[C@@H](OC(=O)Nc2ccccc2)[C@H](OC(=O)Nc2ccccc2-c2ccccc2)[C@H]1OC(=O)Nc1ccccc1-c1ccccc1 | Inhibin beta A chain (activin A) | 0.0315
COc1c(C)cc(-c2cc3c(c(CCc4ccccc4)n2)[Si](C(C)C)(C(C)C)OC3)cc1C | Inhibin beta A chain (activin A) | 0.474
CC(C)[C@@H](C(=O)O)n1cc(-c2ccccn2)nn1 | Inhibin beta A chain (activin A) | 0.805
CC(C)C[C@@H]1NC(=O)[C@@H]2C[C@H](C(=O)NCCCCCNC(=O)CS)[C@H](c3cccc(OCCO)c3)N2C1=O | Inhibin beta A chain (activin A) | 0.947
O=C(NCC(F)(F)F)[C@@H]1c2ccccc2C(=O)N(C2Cc3ccccc3C2)[C@H]1c1ccc(CO)cc1 | Inhibin beta A chain (activin A) | 1.03
COc1ccc([Si](C)(C)[C@H]2[C@H](CC(=O)N(CCO)Cc3ccccc3)O[C@@]3(C(=O)N(Cc4ccc(N5CCOC5=O)cc4)c4ccccc43)[C@@H]2C)cc1 | Inhibin beta A chain (activin A) | 0.6
C=C(C(=O)CC[C@H](OC(C)=O)c1ccc(CO)o1)C(C)C | Inhibin beta A chain (activin A) | 0.0011
CC(C)(C)OC(=O)CC[C@@]12N=C(c3ccc(OCCCO)cc3)O[C@@H]1c1ccccc1N(Cc1ccccc1)C2=O | Inhibin beta A chain (activin A) | 1.14
COC(=O)C1=CC(c2ccc(CO)cc2)=CC(C2CC2)N(C)C=C1C(=O)OC (centres undefined) | Inhibin beta A chain (activin A) | 0.606
